Test system: HOP-62 NSCLC
Assay method text: NCI-60 one-dose screen, 48 h
Stated conditions: 10 µM unless noted
The panel holds about 83,000 compounds, 20% with a hit somewhere; the sample as a whole holds those more often. The source made the active and inactive calls. Rule for the calls: active = growth percent below 10; inactive = the rest.
Can you answer with just one of these options? true = active, false = inactive

QUERY: Please share the test call associated with CC1(C)OCC(COC(c2ccccc2)(c2ccccc2)c2ccccc2)O1 (centres undefined) .
RESULT: false

QUERY: Another: O=[N+]([O-])c1ccc(C(Br)c2ccc([N+](=O)[O-])cc2)cc1
RESULT: false

QUERY: Another: O=C1C=CC(=O)c2c(O)c(CO)c(CO)c(O)c21
RESULT: false

QUERY: Another: CN1CCC(c2ccccc2)(c2ccccc2)C(=O)C1
RESULT: false

QUERY: Another: CC1=CC(=NC(=O)CBr)C=C/C1=N\S(=O)(=O)c1ccccc1
RESULT: false

QUERY: Another: O=C(/C(Cl)=N/O)c1ccc(-c2ccccc2)cc1
RESULT: false

QUERY: Another: CN=C(N)N/N=C(\C)c1ccc2c(c1)Cc1ccccc1-2
RESULT: true

QUERY: Another: CC[n+]1ccc(Nc2ccc(NC(=O)c3ccc(Nc4cc[n+](CC)c5ccc([N+](=O)[O-])cc45)cc3)cc2)cc1
RESULT: false

QUERY: Another: CCCN(CCC)C(=O)c1ccc(C)cc1
RESULT: false

QUERY: Another: NC(=S)Nc1ccc2c(c1)Cc1ccccc1-2
RESULT: false

QUERY: Another: CCOc1ccc(C(C[N+](=O)[O-])Sc2ccccc2N)cc1 (centres undefined)
RESULT: false

QUERY: Another: CN(C)c1ccc(/C=C/c2sc3ccc4ccccc4c3[n+]2C)cc1
RESULT: true

QUERY: Another: Cc1ccc(Nc2ccc(O)c3c2C(=O)c2c(O)ccc(Nc4ccc(C)cc4)c2C3=O)cc1
RESULT: false

QUERY: Another: CC(C)=CCCC(C)C1=C(O)C(=O)C(C)=CC1=O (centres undefined)
RESULT: false

QUERY: Another: CN(C)c1ccc(/C=C/c2ccnc3ccccc23)cc1
RESULT: false

QUERY: Another: C/C(=N\NC(=S)N1CC2CCC(CC2)C1)c1ccccn1
RESULT: false

QUERY: Another: Oc1cc(Cl)ccc1Cc1ccc(Cl)cc1O
RESULT: false

QUERY: Another: C(=N\Nc1ccc2ccccc2n1)/c1ccccn1
RESULT: true

QUERY: Another: CC1(C)CCCC2=C1C(=O)N(SC(Cl)(Cl)Cl)C2=O
RESULT: false

QUERY: Another: O=C1c2ccccc2C(=O)c2c(O)c(Cl)cc(O)c21
RESULT: false

QUERY: Another: O=C1C=Cc2ccccc2/C1=C/c1nc(-c2ccccc2)oc1O
RESULT: false

QUERY: Another: O=[N+]([O-])c1ccc2c(c1)Cc1ccccc1-2
RESULT: false

QUERY: Another: CC(=O)c1c(O)c(C)c(O)c2c1OC1=CC(=O)C(C(C)=O)C(=O)C12C (centres undefined)
RESULT: false

QUERY: Another: O=C(O)c1cc2c(s1)C(=O)c1sccc1C2=O
RESULT: true

====

Tested on: MALME-3M melanoma
Assay method text: NCI-60 one-dose screen, 48 h
Stated conditions: 10 µM unless noted
The panel holds about 83,000 compounds, 20% with a hit somewhere; the sample as a whole holds those more often. Active and inactive are the calls of the source. Rule for the calls: active = growth percent below 10; inactive = the rest.
Can you answer with just one of these options? active, inactive

QUERY: Please share the test call associated with COC1=CC(=O)c2c(O)c3c(c(O)c2C1=O)CC(C)(O)OC3 (configuration not stated) .
RESULT: active

QUERY: Another: CCOC(=O)c1c(C)[nH]c2ccc(O)cc12
RESULT: inactive

QUERY: Another: COC(=O)c1cc([N+](=O)[O-])cc([N+](=O)[O-])c1Cl
RESULT: inactive

QUERY: Another: Nc1ccc(-c2ccc(N)c(S(=O)(=O)O)c2)cc1S(=O)(=O)O
RESULT: inactive

QUERY: Another: O=C(/C(Cl)=N/O)c1ccc(-c2ccccc2)cc1
RESULT: inactive

QUERY: Another: CCCCCC/C=C1\CCC(CN2CCCC2)C1=O (configuration not stated)
RESULT: inactive

QUERY: Another: Cc1cc(I)nc2ccccc12
RESULT: inactive

QUERY: Another: CCCCC(C=O)(C=C=C(C)C)CC (configuration not stated)
RESULT: inactive

QUERY: Another: O=C/C=C/c1ccc([N+](=O)[O-])cc1
RESULT: inactive

QUERY: Another: O=C1CSC(=S)N1Cc1cccnc1
RESULT: inactive

QUERY: Another: Cc1cc2nc(CC(=O)c3ccncc3)c(=O)[nH]c2cc1C
RESULT: inactive

QUERY: Another: CCN(CC)CCNc1ccc([N+](=O)[O-])c2sc3ccccc3c(=O)c12
RESULT: active
